All figures here come from PubChem BioAssay AID179.

Test system: CEM cells HIV-1 protection, formazan growth assay
method_notes: NCI AIDS Antiviral Assay;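 active = compounds giving half or more protection of infected cells from virus-caused growth loss, again on retest; inactive = the rest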
Outcome codes: active, inactive

compound=O=C(/C=C\c1ccccc1O)c1ccc(O)cc1O label_class=active
compound=COc1cccc(/C=C2\S/C(=N/Nc3nc(C)c(C)s3)NC2=O)c1O label_class=inactive
compound="CC(=O)c1ccc(NC(=O)/C(=N\\NC(N)=O)C(C#N)CC(C)(C)C=O)cc1 (configuration not stated)" label_class=inactive
compound="COC(=O)C(Cc1ccccc1)N=Cc1c(O)c(O)c(C(C)C)c2cc(C)c(-c3c(C)cc4c(C(C)C)c(O)c(O)c(C=NC(Cc5ccccc5)C(=O)OC)c4c3O)c(O)c12 (configuration not stated)" label_class=inactive
compound=O=C1/C(=C/c2ccc(Br)s2)NC(=S)N1CN1CCCCC1 label_class=inactive
compound="CCC1(c2ccc(N3C(=O)c4cccc5cc([N+](=O)[O-])cc(c45)C3=O)cc2)CCC(=O)NC1=O (configuration not stated)" label_class=inactive
compound="CCCCC1(c2sccc2C(O)(C(F)F)C(F)(F)F)NC(C)(C)CO1 (configuration not stated)" label_class=inactive

====

System: CEM cells HIV-1 protection, formazan growth assay
method_notes: NCI AIDS Antiviral Assay
measured_parameter: EC50

molecule=O=C(Nc1ccc(/C=C\c2ccc(NC(=O)c3cc(S(=O)(=O)O)c4cccnc4c3O)cc2S(=O)(=O)O)c(S(=O)(=O)O)c1)c1cc(S(=O)(=O)O)c2cccnc2c1O meas_value="> 100 µM"
molecule=O=C1CSC(=Nc2ccc(F)cc2F)N1Cc1cccs1 meas_value="> 107 µM"
molecule="CN(CC(O)C(O)C(O)C(O)CO)CN1C(=O)C(=O)c2ccccc21 (stereo not given)" meas_value="> 200 µM"
molecule=O=C(O)C1(Cc2ccc3c(c2)CCC3)Cc2ccccc2C1 meas_value="> 200 µM"
molecule="CCOC1=NC(C(F)(F)F)(C(F)(F)F)N=C(/N=C(/N)N(C)C(C(C)C)P(=O)(OC(C)C)OC(C)C)O1 (stereo not given)" meas_value="> 200 µM"

====

Test system: CEM cells HIV-1 protection, formazan growth assay
method_notes: NCI AIDS Antiviral Assay
test_parameters: measured here: growth of uninfected CEM cells
Recorded measurements of IC50, one per entry
measured_parameter: IC50

compound=Nc1ccn(CC(=O)NCCCO)c(=O)n1 measured_parameter=IC50 meas_value="> 200 µM"
compound=COC(=O)C(Cc1cc(OC)c(OC)c(OC)c1)C(=O)OC measured_parameter=IC50 meas_value="> 302 µM"
compound=CC1=NN2C(=N)/C(=C/c3ccco3)C(=O)N=C2S1 measured_parameter=IC50 meas_value="> 200 µM"
compound=O=C(O)COc1c2occc2cc2ccc(=O)oc12 measured_parameter=IC50 meas_value="> 347 µM"
compound=COc1ccc2ccc3c(CCN(C)C#N)cc4c(c3c2c1OC(C)=O)OCO4 measured_parameter=IC50 meas_value="> 34.7 µM"
compound=C[N+]1(CC(O)(O)C(F)F)CCOCC1 measured_parameter=IC50 meas_value="> 200 µM"
compound=CC1=CCC(C)=Nc2nc3ccccc3n21 measured_parameter=IC50 meas_value="> 200 µM"
compound="CC(=O)[C@@H]1[C@@H](OC(=O)CCC(C)COC2OC(CO)C(O)C(O)C2O)C[C@H]2[C@@H]3CC=C4C[C@@H](OC5OC(CO)C(OC6OC(C)C(O)C(O)C6O)C(O)C5OC5OC(C)C(O)C(O)C5O)CC[C@]4(C)[C@H]3CC[C@]12C (some centres undefined)" measured_parameter=IC50 meas_value="> 200 µM"
compound=Cc1cscc(C)c1=S measured_parameter=IC50 meas_value="> 195 µM"
compound=COC(=O)c1c(C#C[Si](C)(C)C)c(C#C[Si](C)(C)C)c(C#C[Si](C)(C)C)c(C#C[Si](C)(C)C)c1C(=O)OC measured_parameter=IC50 meas_value="> 50.1 µM"
compound=O=c1[nH]c2ccsc2c(=O)n1COCc1ccccc1 measured_parameter=IC50 meas_value="> 200 µM"
compound=NC(=O)c1cc(NC(=O)c2ccc(C(=O)Nc3cc(C(N)=O)cc(C4=NCCN4)c3)cc2)cc(C2=NCCN2)c1 measured_parameter=IC50 meas_value="> 100 µM"
compound="CC(C)N(C(=O)C12C3C4C1C1C2C3C41C(=O)O)C(C)C (centres undefined)" measured_parameter=IC50 meas_value="> 129 µM"
compound="OCC1OC(c2ccccc2)CC1O (centres undefined)" measured_parameter=IC50 meas_value="> 200 µM"
